# System: HepG2 cells
# PROTOCOL_DESCRIPTION: MTT cell viability assay, HepG2 cells
# Type: cell-based, human
# EXPERIMENTAL_CONDITIONS: Homo sapiens, HepG2; MTT, 24 h incubation; read-out: IC50 HepG2
The label Criterion met is reserved for IC50 strictly under 50 µM; Criterion not met covers values equal to or above it.

[
  {
    "COMPOUND": "C=C[C@H](O)C#CC#C[C@@H](O)/C=C\\CCCCCCCCOC(C)=O",
    "LABEL_CLASS": "Criterion met"
  },
  {
    "COMPOUND": "CC[C@H](O)C#CC#C[C@@H](O)/C=C\\CCCCCCCCO",
    "LABEL_CLASS": "Criterion met"
  },
  {
    "COMPOUND": "CC[C@H](O)C#CC#C[C@@H](O)/C=C\\CCCCCCCCOC(C)=O",
    "LABEL_CLASS": "Criterion not met"
  },
  {
    "COMPOUND": "C=C[C@@H](C#CC#C[C@@H](O)/C=C\\CCCCCCCCOC(C)=O)OC(C)=O",
    "LABEL_CLASS": "Criterion not met"
  },
  {
    "COMPOUND": "C=C[C@H](O)C#CC#C[C@@H](O)/C=C\\CCCCCCCCO",
    "LABEL_CLASS": "Criterion met"
  },
  {
    "COMPOUND": "CCCCCCC/C=C\\[C@H](O)C#CC#C[C@@H](O)CC",
    "LABEL_CLASS": "Criterion met"
  }
]

----------
# System: A549 cells
# PROTOCOL_DESCRIPTION: MTT cell viability assay, A549 cells
# Type: cell-based, human
# EXPERIMENTAL_CONDITIONS: Homo sapiens, A549; MTT, 24 h incubation; read-out: IC50 A549
The label Fulfilled is reserved for IC50 strictly under 90 µM; Not fulfilled covers values equal to or above it.

[
  {
    "COMPOUND": "C=C[C@H](O)C#CC#C[C@@H](O)/C=C\\CCCCCCCCOC(C)=O",
    "LABEL_CLASS": "Not fulfilled"
  },
  {
    "COMPOUND": "C=C[C@@H](C#CC#C[C@@H](O)/C=C\\CCCCCCCCOC(C)=O)OC(C)=O",
    "LABEL_CLASS": "Fulfilled"
  },
  {
    "COMPOUND": "CC[C@H](O)C#CC#C[C@@H](O)/C=C\\CCCCCCCCO",
    "LABEL_CLASS": "Fulfilled"
  },
  {
    "COMPOUND": "CC[C@H](O)C#CC#C[C@@H](O)/C=C\\CCCCCCCCOC(C)=O",
    "LABEL_CLASS": "Not fulfilled"
  },
  {
    "COMPOUND": "CCCCCCC/C=C\\[C@H](O)C#CC#C[C@@H](O)CC",
    "LABEL_CLASS": "Fulfilled"
  }
]

The values you see were collected from paper PMC6271697.
